Data credit: patent US20260191981A1

SUBJECT OF TEST: T1, biotinylated hTfR1 (Acro Bio p/n TFR-H82E5) (human, UniProt P02786 89-760, biotinylated; site not stated)
T1 construct: Bought reagent of the BLI assay
TEST METHOD NOTES: BLI, Octet RH16, biotinylated TfR1 on streptavidin sensor; Fab-siRNA conjugate
OBSERVATION TYPE: kon (M⁻¹ s⁻¹)
Please give a number only; it is taken to be in M⁻¹ s⁻¹.

BINDER	OBSERVATION TYPE	NUMBER
Fab0067-siRNA conjugate (Fab, V domains shown, siRNA-linker on a reduced cysteine; chain and residue not stated, also called Fab0067 (BLI conjugate columns)) VH: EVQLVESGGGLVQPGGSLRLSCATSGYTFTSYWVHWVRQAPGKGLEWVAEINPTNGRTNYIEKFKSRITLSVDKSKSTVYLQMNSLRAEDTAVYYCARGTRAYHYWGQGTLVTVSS VL: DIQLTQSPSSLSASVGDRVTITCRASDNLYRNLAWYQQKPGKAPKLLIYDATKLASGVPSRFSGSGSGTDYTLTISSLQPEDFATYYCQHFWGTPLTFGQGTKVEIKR	kon	268000
Fab0069-siRNA conjugate (Fab, V domains shown, siRNA-linker on a reduced cysteine; chain and residue not stated, also called Fab0069 (BLI conjugate columns)) VH: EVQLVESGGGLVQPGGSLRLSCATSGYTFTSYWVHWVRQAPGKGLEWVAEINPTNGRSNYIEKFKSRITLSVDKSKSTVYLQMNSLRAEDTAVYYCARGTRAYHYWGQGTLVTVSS VL: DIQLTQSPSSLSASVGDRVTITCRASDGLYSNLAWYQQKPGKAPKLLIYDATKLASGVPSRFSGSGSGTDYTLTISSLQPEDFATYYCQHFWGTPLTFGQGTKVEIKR	kon	301000
Fab0063-siRNA conjugate (Fab, V domains shown, siRNA-linker on a reduced cysteine; chain and residue not stated, also called Fab0063 (BLI conjugate columns)) VH: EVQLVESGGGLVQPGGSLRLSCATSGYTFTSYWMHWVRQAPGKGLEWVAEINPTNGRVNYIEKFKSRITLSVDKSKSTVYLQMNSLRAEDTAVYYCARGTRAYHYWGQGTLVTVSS VL: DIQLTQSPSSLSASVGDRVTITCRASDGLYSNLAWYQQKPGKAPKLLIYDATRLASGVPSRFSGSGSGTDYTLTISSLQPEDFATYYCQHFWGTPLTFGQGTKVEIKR	kon	285000

# ---- query binder ----
Kindly note the recorded kon for Fab0072-siRNA conjugate (Fab, V domains shown, siRNA-linker on a reduced cysteine; chain and residue not stated, also called Fab0072 (BLI conjugate columns)) VH: EVQLVESGGGLVQPGGSLRLSCATSGYTFNSYWMHWVRQAPGKGLEWVAEINPTNGRFNYIEKFKSRITLSVDKSKSTVYLQMNSLRAEDTAVYYCARGTRAYHYWGQGTLVTVSS VL: DIQLTQSPSSLSASVGDRVTITCRASDNLYRNLAWYQQKPGKAPKLLIYDARNLASGVPSRFSGSGSGTDYTLTISSLQPEDFATYYCQHFWGTPLTFGQGTKVEIKR , which is 292000
